The entries below come with measured CTG-3D luminescence at 96 h values attached.
tested on: HCI-002 (organoid from a triple-negative breast cancer xenograft); assay: CTG-3D luminescence at 96 h relative to day-0 seeding control (ratio to day 0); higher = more growth / less cytotoxicity; PDxO 3D drug screen, 96 h, CTG-3D normalised to day-0 seeding control.; conditions: 12.5 pM; days in culture: 91

{"columns": ["item.smiles", "CTG-3D luminescence at 96 h"],
 "data": [
  ["C=CCn1c(=O)c2cnc(Nc3ccc(N4CCN(C)CC4)cc3)nc2n1-c1cccc(C(C)(C)O)n1", 3.69],
  ["CC[C@H](NC(=O)[C@H](C)NC)C(=O)N1C[C@@H](O)C[C@H]1Cc1c(-c2[nH]c3cc(F)ccc3c2C[C@@H]2C[C@H](O)CN2C(=O)[C@H](CC)NC(=O)[C@H](C)NC)[nH]c2cc(F)ccc12", 4.14],
  ["CCc1c2c(nc3ccc(O)cc13)-c1cc3c(c(=O)n1C2)COC(=O)[C@]3(O)CC", 3.6]
]}

* * *

The entries below come with measured CTG-3D luminescence at 96 h values attached.
system: HCI-024 (organoid from a breast cancer xenograft); test: CTG-3D luminescence at 96 h relative to day-0 seeding control (ratio to day 0); higher = more growth / less cytotoxicity; PDxO 3D drug screen, 96 h, CTG-3D normalised to day-0 seeding control.; conditions: 12.5 pM; days in culture: 122
observed.property: CTG-3D luminescence at 96 h

{"columns": ["item.smiles", "observed.property", "experimental.result"],
 "data": [
  ["CCN1CCN(Cc2ccc(Nc3ncc(F)c(-c4cc(F)c5nc(C)n(C(C)C)c5c4)n3)nc2)CC1", "CTG-3D luminescence at 96 h", 2.26],
  ["C/C=C1\\NC(=O)[C@H]2CSSCC/C=C/[C@H](CC(=O)N[C@H](C(C)C)C(=O)N2)OC(=O)[C@H](C(C)C)NC1=O", "CTG-3D luminescence at 96 h", 1.84],
  ["CC(C)n1nc(-c2ccc3oc(N)nc3c2)c2c(N)ncnc21", "CTG-3D luminescence at 96 h", 2.28],
  ["CC(C)(C(=O)NCC(F)(F)C(F)(F)F)C(=O)N[C@@H]1C(=O)Nc2ccccc2-c2ccccc21", "CTG-3D luminescence at 96 h", 2.28]
]}

* * *

system: HCI-001 (organoid from a triple-negative breast cancer xenograft); assay: CTG-3D luminescence at 96 h relative to day-0 seeding control (ratio to day 0); higher = more growth / less cytotoxicity; PDxO 3D drug screen, 96 h, CTG-3D normalised to day-0 seeding control.; conditions: 10 µM; days in culture: 346

{"columns": ["item.smiles", "system.under.test", "CTG-3D luminescence at 96 h"],
 "data": [
  ["Nc1ccn([C@@H]2O[C@H](CO)[C@@H](O)C2(F)F)c(=O)n1", "HCI-001", 0.5],
  ["Cc1cc(Nc2ncc(Cl)c(Nc3ccccc3S(=O)(=O)C(C)C)n2)c(OC(C)C)cc1C1CCNCC1", "HCI-001", 0.45],
  ["C=CCn1c(=O)c2cnc(Nc3ccc(N4CCN(C)CC4)cc3)nc2n1-c1cccc(C(C)(C)O)n1", "HCI-001", 0.163],
  ["Cc1cc(Nc2ncnc3ccc(NC4=NC(C)(C)CO4)cc23)ccc1Oc1ccn2ncnc2c1", "HCI-001", 1.25]
]}

* * *

test system: HCI-015 (organoid from a triple-negative breast cancer xenograft); test: CTG-3D luminescence at 96 h relative to day-0 seeding control (ratio to day 0); higher = more growth / less cytotoxicity; PDxO 3D drug screen, 96 h, CTG-3D normalised to day-0 seeding control.; settings: 0.005 µM; days in culture: 172
The entries below come with measured CTG-3D luminescence at 96 h values attached.

{"columns": ["molecule", "CTG-3D luminescence at 96 h"],
 "data": [
  ["CN(Cc1cnc2nc(N)nc(N)c2n1)c1ccc(C(=O)N[C@@H](CCC(=O)O)C(=O)O)cc1 [methotrexate]", 2.36],
  ["CC[C@H](NC(=O)[C@H](C)NC)C(=O)N1C[C@@H](O)C[C@H]1Cc1c(-c2[nH]c3cc(F)ccc3c2C[C@@H]2C[C@H](O)CN2C(=O)[C@H](CC)NC(=O)[C@H](C)NC)[nH]c2cc(F)ccc12", 0.598],
  ["Nc1ccn([C@@H]2O[C@H](CO)[C@@H](O)C2(F)F)c(=O)n1", 1.95],
  ["NC(=O)c1cccc2cn(-c3ccc([C@@H]4CCCNC4)cc3)nc12", 2.64],
  ["C/C=C1\\NC(=O)[C@H]2CSSCC/C=C/[C@H](CC(=O)N[C@H](C(C)C)C(=O)N2)OC(=O)[C@H](C(C)C)NC1=O", 1.05],
  ["COc1cc2c(Oc3ccc4[nH]c(C)cc4c3F)ncnc2cc1OCCCN1CCCC1", 2.22],
  ["O=C(c1ccc(F)c(F)c1Nc1ccc(I)cc1F)N1CC(O)([C@@H]2CCCCN2)C1", 2.13],
  ["CC(C)(C(=O)NCC(F)(F)C(F)(F)F)C(=O)N[C@@H]1C(=O)Nc2ccccc2-c2ccccc21", 1.41]
]}

* * *

The entries below come with measured CTG-3D luminescence at 96 h values attached.
test system: HCI-002; test: CTG-3D luminescence at 96 h relative to day-0 seeding control (ratio to day 0); higher = more growth / less cytotoxicity; PDxO 3D drug screen, 96 h, CTG-3D normalised to day-0 seeding control.; details: 0.00025 µM; days in culture: 191

{"columns": ["compound", "CTG-3D luminescence at 96 h"],
 "data": [
  ["C[C@@H]1COCCN1c1cc(C2([S@](C)(=N)=O)CC2)nc(-c2cc[nH]c3nccc2-3)n1 [ceralasertib]", 2.89],
  ["C=CC(=O)N1CCC[C@@H](n2nc(-c3ccc(Oc4ccccc4)cc3)c3c(N)ncnc32)C1 [ibrutinib]", 2.47],
  ["Cc1cc(Nc2ncnc3ccc(NC4=NC(C)(C)CO4)cc23)ccc1Oc1ccn2ncnc2c1 [tucatinib]", 2.43]
]}

* * *

system: HCI-001; test: CTG-3D luminescence at 96 h relative to day-0 seeding control (ratio to day 0); higher = more growth / less cytotoxicity; PDxO 3D drug screen, 96 h, CTG-3D normalised to day-0 seeding control.; details: 625 fM; days in culture: 346
The entries below come with measured CTG-3D luminescence at 96 h values attached.
observed.property: CTG-3D luminescence at 96 h

{"columns": ["molecule", "observed.property", "experimental.result"],
 "data": [
  ["C/C=C1\\NC(=O)[C@H]2CSSCC/C=C/[C@H](CC(=O)N[C@H](C(C)C)C(=O)N2)OC(=O)[C@H](C(C)C)NC1=O [romidepsin]", "CTG-3D luminescence at 96 h", 1.21],
  ["CCN1CCN(Cc2ccc(Nc3ncc(F)c(-c4cc(F)c5nc(C)n(C(C)C)c5c4)n3)nc2)CC1 [abemaciclib]", "CTG-3D luminescence at 96 h", 1.19],
  ["C=CC(=O)N1CCC[C@@H](n2nc(-c3ccc(Oc4ccccc4)cc3)c3c(N)ncnc32)C1 [ibrutinib]", "CTG-3D luminescence at 96 h", 1.3],
  ["COc1cc2c(Oc3ccc4[nH]c(C)cc4c3F)ncnc2cc1OCCCN1CCCC1 [cediranib]", "CTG-3D luminescence at 96 h", 1.33],
  ["Nc1ccn([C@@H]2O[C@H](CO)[C@@H](O)C2(F)F)c(=O)n1 [gemcitabine]", "CTG-3D luminescence at 96 h", 1.1],
  ["C[C@H](NC(=O)CCC(F)(F)F)C(=O)N[C@@H]1C(=O)N(CCO)c2ncccc2-c2ccccc21 [crenigacestat]", "CTG-3D luminescence at 96 h", 1.11],
  ["CC[C@H](NC(=O)[C@H](C)NC)C(=O)N1C[C@@H](O)C[C@H]1Cc1c(-c2[nH]c3cc(F)ccc3c2C[C@@H]2C[C@H](O)CN2C(=O)[C@H](CC)NC(=O)[C@H](C)NC)[nH]c2cc(F)ccc12 [birinapant]", "CTG-3D luminescence at 96 h", 1.14]
]}

* * *

system: HCI-005.E2 (organoid from a breast cancer xenograft with a HER2-positive history); assay: CTG-3D luminescence at 96 h relative to day-0 seeding control (ratio to day 0); higher = more growth / less cytotoxicity; PDxO 3D drug screen, 96 h, CTG-3D normalised to day-0 seeding control.; settings: 12.5 pM

{"columns": ["item.smiles", "CTG-3D luminescence at 96 h"],
 "data": [
  ["O=C(c1ccc(F)c(F)c1Nc1ccc(I)cc1F)N1CC(O)([C@@H]2CCCCN2)C1", 1.55],
  ["CC1(C)CCC(c2ccc(Cl)cc2)=C(CN2CCN(c3ccc(C(=O)NS(=O)(=O)c4ccc(N[C@H](CCN5CCOCC5)CSc5ccccc5)c(S(=O)(=O)C(F)(F)F)c4)cc3)CC2)C1", 1.5],
  ["Nc1ccn([C@@H]2O[C@H](CO)[C@@H](O)C2(F)F)c(=O)n1", 1.6],
  ["CC(=O)O[C@H]1C(=O)[C@@]2(C)[C@H]([C@H](OC(=O)c3ccccc3)[C@]3(O)C[C@H](OC(=O)[C@H](O)[C@@H](NC(=O)c4ccccc4)c4ccccc4)C(C)=C1C3(C)C)[C@]1(OC(C)=O)CO[C@@H]1C[C@@H]2O", 1.56]
]}

Where do these numbers come from? They come from the supplement of paper PMC8882468.
